Assay: Plasma pharmacokinetics of aspirin and metabolites after single oral gavage dose
Assay type: in vivo, cynomolgus monkey
Details: cynomolgus monkey, plasma, oral; Phase 2B text, Aspirin 4.2 mg/Kg dose; read-out: modeled AUC of Aspirin
Procedure: The objectives of this study are to determine the comparative clinical efficacy as determined by TxB2 suppression with single oral gavage dose administration of Aspirin, ST0702 and ST0702 Micronised to the cynomolgus monkey. Aspirin pharmacokinetics were compared using Area Under the Curve (AUC) calculations. […] Plasma samples are analyzed for concentration of Aspirin, Salicylic Acid and Nicotinic Acid using a qualified analytical procedure. […]
Measured metric: AUC (ng·h/mL)
Dear colleague, please return just the value in ng·h/mL, with no unit written.

Incoming: Could you share which AUC value was measured for `CC(=O)Oc1ccccc1C(=O)O` ?
Outgoing: 923

====

experiment: Plasma pharmacokinetics of aspirin and metabolites after single oral gavage dose; assay type: in vivo, cynomolgus monkey; conditions: cynomolgus monkey, plasma; Phase 2A, Aspirin 4.2 mg/Kg oral; read-out: modeled AUC of Aspirin
Measured metric: AUC (ng·h/mL)
Dear colleague, please return just the value in ng·h/mL, with no unit written.

Incoming: Could you share which AUC value was measured for `CC(=O)Oc1ccccc1C(=O)O` ?
Outgoing: 870

====

test system: P-selectin; test: Flow cytometry of platelet P-selectin during TCIPA induced by 59M cells; type: cell-based, human; details: 300 μM
Measured metric: 59M-mediated increase in platelet surface P-selectin

{"columns": ["Compound", "Observed measurement"],
 "data": [
  ["CC(=O)Oc1ccccc1C(=O)O", "failed to prevent"],
  ["CC(=O)Oc1ccccc1C(=O)OC1COC2C(OC(=O)c3ccccc3O)COC12 (stereo not shown) [ST0701, isosorbide-2-aspirinate-5-salicylate]", "failed to prevent"]
]}
